Target: Mpr1 (Cryptococcus neoformans, UniProt J9VXZ9)
Construct: recombinant His-tagged Mpr1 secreted from Pichia pastoris expressing CnMPR1-HIS cDNA
Sequence (J9VXZ9 entry or part of it): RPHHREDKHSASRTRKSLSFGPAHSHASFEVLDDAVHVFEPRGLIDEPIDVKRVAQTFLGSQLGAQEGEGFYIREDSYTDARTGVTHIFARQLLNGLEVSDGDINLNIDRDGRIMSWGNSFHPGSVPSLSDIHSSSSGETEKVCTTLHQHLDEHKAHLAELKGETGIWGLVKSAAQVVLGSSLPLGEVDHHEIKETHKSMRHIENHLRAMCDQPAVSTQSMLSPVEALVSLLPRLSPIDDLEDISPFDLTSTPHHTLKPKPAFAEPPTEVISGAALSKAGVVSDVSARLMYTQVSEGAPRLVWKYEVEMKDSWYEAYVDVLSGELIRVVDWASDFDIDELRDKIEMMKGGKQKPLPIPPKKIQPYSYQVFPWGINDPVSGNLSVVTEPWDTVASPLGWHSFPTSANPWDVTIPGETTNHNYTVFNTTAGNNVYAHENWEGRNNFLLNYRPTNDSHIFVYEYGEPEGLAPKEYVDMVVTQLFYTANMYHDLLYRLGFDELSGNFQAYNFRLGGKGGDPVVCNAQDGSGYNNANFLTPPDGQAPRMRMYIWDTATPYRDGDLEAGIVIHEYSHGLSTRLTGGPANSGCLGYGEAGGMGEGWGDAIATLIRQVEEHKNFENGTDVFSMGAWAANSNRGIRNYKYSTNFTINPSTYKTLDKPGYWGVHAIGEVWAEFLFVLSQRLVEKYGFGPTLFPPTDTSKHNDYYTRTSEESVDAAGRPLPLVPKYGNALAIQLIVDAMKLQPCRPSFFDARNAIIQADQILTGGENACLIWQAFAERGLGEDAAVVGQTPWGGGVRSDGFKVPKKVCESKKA
Test: FITC-casein proteolysis assay with purified recombinant Mpr1-His
measuredMetric: pIC50
The value called pIC50 is obtained by taking minus log10 of the concentration in mol/L.

Use these answered entries as a reference point.
compound	pIC50
OC[C@@H]1CCCN2CCCC[C@H]12 [NP003-2B11, lupinine]	5.02
C[C@@H]1CC[C@@]2(OC1)O[C@H]1C[C@H]3[C@@H]4CC=C5C[C@@H](O)CC[C@]5(C)[C@H]4CC[C@]3(C)[C@H]1[C@@H]2C [NP002-1D9, diosgenin]	5.30

We next turn to a different compound, shown below.
Exercise: Given the compound CC(C)C1=CC2=CC[C@@H]3[C@](C)(CCC[C@@]3(C)C(=O)O)[C@H]2CC1 [NP001-1C11, abietic acid] , write its reported pIC50.
Solution: 5.29
